- Assay: Quantitative highthroughput screen to assess conditional lethalithy of P12 Ichikawa cells grown in RPMI1640 with dialyzed fetal bovine serum (RPMI+ds) (AID 1963880); further: nearly all actives have a fitted effect of over 35% in size;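 on viability: 100% = DMSO wells and 0% = empty wells on each plate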
- Stated Conditions: ATP luminescence, 48 h; P12-Ichikawa viability; series mostly up to 45.8 µM
Results filed as inconclusive are left out. Calls of active or inactive are those of the source. The call rests on the fitted dose curve; in most records, active means well fitted cell-killing curve with a large enough effect; inconclusive means small, poorly fitted or top-dose-only effect; inactive means flat fitted curve, though single readings scatter.
Field 'call' accepts yes (1) (active), no (0) (inactive)

Hi, do you know how COC1=C[C@@H]2[C@@H]3Cc4ccc(OC)c(O)c4[C@]2(CCN3C)CC1=O came out in this test?
no (0)

Hi, do you know how CC(C)(C)[C@]1(O)C[C@@H]2OC(=O)C[C@@]23C(=O)O[C@@H]2OC(=O)[C@H](O)C213 (some centres undefined) came out in this test?
no (0)

Hi, do you know how O=c1[nH]c2ccccc2n1CCCN1CCC(n2c(=O)[nH]c3cc(Cl)ccc32)CC1 came out in this test?
no (0)

Hi, do you know how COC1=CC(C)=C[C@@H](C)[C@@H](O)[C@@H](C)CC(C)=CC=C[C@H](OC)[C@H]([C@@H](C)[C@@H](O)[C@H](C)[C@@]2(O)C[C@@H](O)[C@H](C)[C@@H](C(C)C)O2)OC1=O came out in this test?
yes (1)

Hi, do you know how Clc1ccccc1C(c1ccccc1)(c1ccccc1)n1cccn1 came out in this test?
no (0)

Hi, do you know how C[C@]12CCC(=O)C(O)=C1CC[C@@H]1[C@H]3CCC(=O)[C@@]3(C)CC[C@@H]12 came out in this test?
no (0)

Hi, do you know how C[C@](O)(CS(=O)(=O)c1ccc(F)cc1)C(=O)Nc1ccc(C#N)c(C(F)(F)F)c1 came out in this test?
no (0)

Hi, do you know how CC[C@@H](C(N)=O)N1CCCC1=O came out in this test?
no (0)

Hi, do you know how COc1ccc2c(c[n+](C)c3c4cc5c(cc4ccc23)OCO5)c1OC came out in this test?
yes (1)

----------
- Assay: Cellular viability qHTS for adrenocortical cancer (ACC) cell line NCI-H295R (AID 1963990); further: nearly all actives have a fitted effect of over 60% in size; further: potency means the concentration at half of the fitted maximal effect
- Stated Conditions: CellTiter-Glo ATP luminescence, 48 h; series mostly up to 46.1 µM
Results filed as inconclusive are left out. Calls of active or inactive are those of the source. The call rests on the fitted dose curve; in most records, active means well fitted cell-killing curve with a large enough effect; inconclusive means small, poorly fitted or top-dose-only effect; inactive means flat fitted curve, though single readings scatter.
Measured Property: Potency

Use the examples below as a reference point.
CC(Cc1ccccc1)NCCn1cnc2c1c(=O)n(C)c(=O)n2C (stereo not given); inactive
CC(C)[N+](C)(CCC(C(N)=O)(c1ccccc1)c1ccccc1)C(C)C; inactive
CCC1(c2cccc(O)c2)CCCCN(C)C1 (stereo not given); inactive
C=CC[C@]1(O)CC[C@H]2[C@@H]3CCC4=CC(=O)CCC4=C3C=C[C@@]21C; inactive
CC(C)[C@]12O[C@H]1[C@@H]1O[C@@]13[C@@]1(C)CCC4=C(COC4=O)[C@@H]1C[C@@H]1O[C@@]13C2=O; 0.631 µM (active)

Requested field: Potency. Item: COC(=O)[C@]12CCC(C)(C)C[C@H]1[C@H]1C(=O)C=C3[C@@]4(C)C=C(C#N)C(=O)C(C)(C)[C@@H]4CC[C@@]3(C)[C@]1(C)CC2
3.98 µM (active)

----------
- Assay: Cellular viability qHTS for adrenocortical cancer (ACC) cell line SW-13 (AID 1963989);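 further: cells grown in serum-free medium with ITS supplement; on the % scale 0 is the no-effect control and ±100 the full control effect; nearly all actives have a fitted effect of over 65% in size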
- Stated Conditions: SW-13 ACC cells viability, CellTiter-Glo, 48 h; active compounds read low
Inconclusive results are not listed. The source made the active and inactive calls. The call rests on the fitted dose curve; in most records, active means well fitted cell-killing curve with a large enough effect; inconclusive means small, poorly fitted or top-dose-only effect; inactive means flat fitted curve, though single readings scatter.
Measured Property: activity (max response)

Requested field: activity (max response). Item: NC(=O)OCCCc1ccccc1
11.5% (inactive)

Requested field: activity (max response). Item: CN(C)[C@@H]1C(=O)C(C(N)=O)=C(O)[C@@]2(O)C(=O)C3=C(O)c4c(O)cccc4[C@@](C)(O)[C@H]3[C@H](O)[C@@H]12
4.8% (inactive)

Requested field: activity (max response). Item: CCC(=O)C(CCN(C)C)(c1ccccc1)c1ccccc1
-1.08% (inactive)

Requested field: activity (max response). Item: C=CCC1(C(C)CC)C(=O)NC(=O)NC1=O (configuration not stated)
0.393% (inactive)

Requested field: activity (max response). Item: CC(CC(C(N)=O)(c1ccccc1)c1ccccc1)N(C)C (configuration not stated)
5.97% (inactive)

Requested field: activity (max response). Item: CCN(CCO)CCn1c(Cc2ccccc2)nc2c1c(=O)n(C)c(=O)n2C
7.74% (inactive)

Requested field: activity (max response). Item: COP(=S)(OC)Oc1ccc(SC)c(C)c1
5.91% (inactive)

Requested field: activity (max response). Item: Oc1ccc([C@H]2CNCc3c2ccc(O)c3O)cc1O
-10.4% (inactive)

Requested field: activity (max response). Item: Cc1nc2ccccc2c(=O)n1-c1ccccc1Cl
-17.2% (inactive)

Requested field: activity (max response). Item: COc1cc2c(cc1F)C(c1ccccc1Cl)=Nc1c(n[nH]c1C)N2
-18.7% (inactive)

Requested field: activity (max response). Item: C[C@H](Nc1ncnc2nc[nH]c12)c1nc2ccc(F)cc2c(=O)n1-c1ccccc1
-19.1% (inactive)

Requested field: activity (max response). Item: OC(c1ccccc1)(c1ccccc1)C1CCNCC1
1.1% (inactive)

Requested field: activity (max response). Item: CCCC[N+]1(C)[C@H]2CC(OC(=O)[C@H](CO)c3ccccc3)C[C@H]1[C@H]1O[C@H]12 (some centres not stated)
-1.99% (inactive)

Requested field: activity (max response). Item: CC(Cc1ccccc1)NCCn1cnc2c1c(=O)n(C)c(=O)n2C (configuration not stated)
-22.4% (inactive)

Requested field: activity (max response). Item: COc1cc(N)c(Cl)cc1C(=O)NC1CN2CCC1CC2 (configuration not stated)
-1.3% (inactive)

Requested field: activity (max response). Item: CC(C)(C)c1cc(C=C(C#N)C#N)cc(Br)c1O
9.19% (inactive)

Requested field: activity (max response). Item: CCN[C@@H](C)Cc1cccc(C(F)(F)F)c1
-3.94% (inactive)

Requested field: activity (max response). Item: O=C1OC(c2ccc(O)c(S(=O)(=O)O)c2)(c2ccc(O)c(S(=O)(=O)O)c2)c2c(Br)c(Br)c(Br)c(Br)c21
4.14% (inactive)

Requested field: activity (max response). Item: CCOC(=O)c1cncn1C(C)c1ccccc1 (configuration not stated)
4.76% (inactive)

Requested field: activity (max response). Item: CSCC[C@@H](NC(=O)[C@@H](Cc1ccccc1)NC(=O)CNC(=O)CNC(=O)[C@@H](N)Cc1ccc(O)cc1)C(=O)O
3.41% (inactive)

Requested field: activity (max response). Item: CC(Cc1ccc(O)cc1)NCC(O)c1cc(O)cc(O)c1 (configuration not stated)
10.9% (inactive)

Requested field: activity (max response). Item: CCN1CCCC1CNC(=O)C(O)(c1ccccc1)c1ccccc1 (configuration not stated)
-3.88% (inactive)

Requested field: activity (max response). Item: Cc1cc(SCc2sc(-c3ccc(C(F)(F)F)c(F)c3)nc2C)ccc1OCC(=O)O
-20.9% (inactive)

Requested field: activity (max response). Item: COc1ccccc1N1CCNCC1
-19.4% (inactive)

Requested field: activity (max response). Item: O=C(N/N=C/c1ccc([N+](=O)[O-])o1)c1cc([N+](=O)[O-])cc([N+](=O)[O-])c1O
-8.68% (inactive)

Requested field: activity (max response). Item: C=CCN1C[C@H](C)N([C@H](c2ccc(C(=O)N(CC)CC)cc2)c2cccc(OC)c2)C[C@H]1C
-5.15% (inactive)

Requested field: activity (max response). Item: CC1=C2[C@H]3OC(=O)[C@@H](C)[C@@H]3CC[C@@]2(C)C=CC1=O
-9.75% (inactive)

Requested field: activity (max response). Item: Oc1ccc(Cl)cc1
10.2% (inactive)

Requested field: activity (max response). Item: CNC(C)Cc1ccc2c(c1)OCO2 (configuration not stated)
-2% (inactive)

Requested field: activity (max response). Item: O=[N+]([O-])c1ccc([As](=O)(O)O)cc1
4.1% (inactive)

Requested field: activity (max response). Item: O=C1C=CC[C@@H]2[C@H]3CCCN4CCC[C@@H](CN12)[C@@H]34
-3.97% (inactive)

Requested field: activity (max response). Item: CC(C)(C)NCC(O)c1cc(Cl)c(N)c(C(F)(F)F)c1 (configuration not stated)
9.74% (inactive)

Requested field: activity (max response). Item: CC(=O)C1CCOC1=O (configuration not stated)
9.4% (inactive)

Requested field: activity (max response). Item: CCN(CC)CCc1c[nH]c2ccccc12
-11.9% (inactive)

Requested field: activity (max response). Item: COc1cccc([C@@]2(O)CCCC[C@@H]2CN(C)C)c1
2.96% (inactive)

Requested field: activity (max response). Item: Oc1ccccc1-c1ccccc1
-7.15% (inactive)

Requested field: activity (max response). Item: CCCCC(CC)COC(=O)c1ccccc1C(=O)OCC(CC)CCCC (configuration not stated)
14% (inactive)

Requested field: activity (max response). Item: O=C(CCCN1CCC(n2c(=O)[nH]c3ccccc32)CC1)c1ccc(F)cc1
-18.7% (inactive)

Requested field: activity (max response). Item: O=[N+]([O-])/N=C1\NCCN1Cc1ccc(Cl)nc1
-5.88% (inactive)

Requested field: activity (max response). Item: Nc1nc(N)nc(NC2CC2)n1
-6.71% (inactive)

Requested field: activity (max response). Item: N[C@@H](Cc1ccc(Oc2cc(I)c(O)c(I)c2)c(I)c1)C(=O)O
2.16% (inactive)

Requested field: activity (max response). Item: CCOC(=O)C(c1c(O)c2ccccc2oc1=O)c1c(O)c2ccccc2oc1=O
16.4% (inactive)

Requested field: activity (max response). Item: COc1c2c(cc3c1OCO3)CCN(C)C2
-10% (inactive)

Requested field: activity (max response). Item: COC(=O)C(Cl)C(=O)OC
-3.15% (inactive)

Requested field: activity (max response). Item: Cc1ccccc1-n1c(Cn2cnc3c(N)ncnc32)nc2cccc(C)c2c1=O
9.58% (inactive)

Requested field: activity (max response). Item: Oc1c(Br)cc(Br)cc1Br
8.39% (inactive)

Requested field: activity (max response). Item: CCOC(=O)C1(c2ccccc2)CCN(CCc2ccc(N)cc2)CC1
-18.4% (inactive)
